Taken from ChEMBL document CHEMBL1126828.

- system.tested: Mu-type opioid receptor (Rattus norvegicus, UniProt P33535)
- Sequence (P33535 whole entry): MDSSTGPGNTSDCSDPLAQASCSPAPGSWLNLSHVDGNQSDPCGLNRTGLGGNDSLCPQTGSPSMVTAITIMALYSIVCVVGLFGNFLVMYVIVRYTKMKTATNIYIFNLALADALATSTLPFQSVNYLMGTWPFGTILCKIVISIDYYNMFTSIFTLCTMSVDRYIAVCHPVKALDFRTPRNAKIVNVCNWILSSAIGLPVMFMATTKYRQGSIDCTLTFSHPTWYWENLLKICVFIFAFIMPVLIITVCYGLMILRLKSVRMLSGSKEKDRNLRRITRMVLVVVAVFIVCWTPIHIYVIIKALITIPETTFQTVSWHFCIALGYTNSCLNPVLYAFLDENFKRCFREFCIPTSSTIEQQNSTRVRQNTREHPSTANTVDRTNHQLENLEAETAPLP
- procedure.details: Binding affinity towards mu opioid receptor by displacement of [3H]NAL from rat brain homogenates
- Format: tissue-based
Attribute: Ki
Lab book: enter the figure in nM, no units written.

C[C@H]1CN(CCCc2cccs2)CC[C@@]1(C)c1cccc(O)c1 (stereo in doubt; 41) | 0.56
C[C@H]1CN(CC2CC2)CC[C@@]1(C)c1cccc(O)c1 | 21
C[C@H]1CN(CCC(=O)c2ccccc2)CC[C@@]1(C)c1cccc(O)c1 (stereo in doubt; 8) | 3.6
C[C@H]1CN(CCC(O)c2cccs2)CC[C@@]1(C)c1cccc(O)c1 (some centres undefined) | 0.5
C[C@H]1CN(CCCOc2ccccc2)CC[C@@]1(C)c1cccc(O)c1 | 1
C[C@H]1CN(CCCc2cccs2)CC[C@@]1(C)c1cccc(O)c1 (stereo in doubt; 42) | 0.2

Incoming: Given the entry CCCCCCCN1CC[C@@](C)(c2cccc(O)c2)[C@@H](C)C1 , report its measured Ki.
Outgoing: 0.62

Incoming: Given the entry C[C@H]1CN(CCC(=O)c2ccccc2)CC[C@@]1(C)c1cccc(O)c1 (stereo in doubt; 6) , report its measured Ki.
Outgoing: 5.4

Incoming: Given the entry C[C@H]1CN(C)CC[C@@]1(C)c1cccc(O)c1 , report its measured Ki.
Outgoing: 80
